System under test: Protein kinase C alpha type (Homo sapiens, UniProt P17252)
Assay summary: Displacement of [20-3H]phorbol-12,13-dibutyrate (PDBu) from a recombinant protein kinase C alpha with phosphatidylserine
Property: pKi
When answering, recall that pKi equals minus log10 of the concentration in mol/L, and write that number alone.

# get_value(readout='pKi', item= O=C1OC(CO)(COC(=O)c2ccc(-c3ccccc3)cc2)C/C1=C/c1ccc(-c2ccccc2)cc1 (stereo unspecified) )
7.08

# get_value(readout='pKi', item= O=C(Cc1ccccc1)OCC1(CO)C/C(=C/c2ccc(-c3ccccc3)cc2)C(=O)O1 (stereo unspecified) )
6.82

# get_value(readout='pKi', item= CCCCCCCC/C=C1/CC(CO)(COC(=O)c2ccc(-c3ccccc3)cc2)OC1=O (stereo unspecified) )
7.38

# get_value(readout='pKi', item= CCCCCCCC/C=C1/CC(CO)(COC(=O)c2ccccc2)OC1=O (stereo unspecified) )
7.34

# get_value(readout='pKi', item= O=C1OC(CO)(COC(=O)c2ccccc2)C/C1=C/c1ccc(-c2ccccc2)cc1 (stereo unspecified) )
7.39

# get_value(readout='pKi', item= CCCCCCCC/C=C1/CC(CO)(COC(=O)Cc2ccccc2)OC1=O (stereo unspecified) )
6.84

----------
System under test: Protein kinase C alpha type (Homo sapiens)
Assay summary: Displacement of [20-3H]phorbol-12,13-dibutyrate (PDBu) from a recombinant protein kinase C alpha with phosphatidylserine
Property: pKi
When answering, recall that pKi equals minus log10 of the concentration in mol/L, and write that number alone.

| Compound | pKi |
| --- | --- |
| CCCCCCCCC/C=C1/CC(CO)(COC(=O)c2ccccc2)OC1=O (stereo not drawn) | 7.43 |
| CCCCCCCCC/C=C1/CC(CO)(COC(=O)Cc2ccccc2)OC1=O (stereo not drawn) | 7.03 |

# evaluate next
# get_value(readout='pKi', item= CCCCCCCCC/C=C1/CC(CO)(COC(=O)c2ccc(-c3ccccc3)cc2)OC1=O (stereo not drawn) )
7.28

----------
System under test: Protein kinase C alpha type (Homo sapiens, UniProt P17252)
Assay summary: Displacement of [20-3H]phorbol-12,13-dibutyrate (PDBu) from a recombinant protein kinase C alpha with phosphatidylserine
Threshold 20 nM: Ki strictly smaller gives rule met, otherwise rule not met.

| Compound | Cat |
| --- | --- |
| CCCCCCCC/C=C1/CC(CO)(COC(=O)Cc2ccccc2)OC1=O (centres undefined) | rule not met |
| CCCCCCCCC/C=C1/CC(CO)(COC(=O)c2ccc(-c3ccccc3)cc2)OC1=O (centres undefined) | rule met |
| CCCCCCCC/C=C1/CC(CO)(COC(=O)c2ccc(-c3ccccc3)cc2)OC1=O (centres undefined) | rule not met |

For this compound, is Ki lower than 20 nM? CCCCCCCC/C=C1/CC(CO)(COC(=O)c2ccccc2)OC1=O (centres undefined)
rule not met

For this compound, is Ki lower than 20 nM? O=C1OC(CO)(COC(=O)c2ccccc2)C/C1=C/c1ccc(-c2ccccc2)cc1 (centres undefined)
rule met

For this compound, is Ki lower than 20 nM? O=C(Cc1ccccc1)OCC1(CO)C/C(=C/c2ccc(-c3ccccc3)cc2)C(=O)O1 (centres undefined)
rule not met

For this compound, is Ki lower than 20 nM? CCCCCCCCC/C=C1/CC(CO)(COC(=O)Cc2ccccc2)OC1=O (centres undefined)
rule not met

For this compound, is Ki lower than 20 nM? O=C1OC(CO)(COC(=O)c2ccc(-c3ccccc3)cc2)C/C1=C/c1ccc(-c2ccccc2)cc1 (centres undefined)
rule not met

Origin of values: ChEMBL document CHEMBL1138829
